FYI, the data here is from patent US20250170141A1.

# pIC50 per record follows
System under test: human MRGPRX2 (Homo sapiens, UniProt Q96LB1)
Sequence (Q96LB1 whole entry): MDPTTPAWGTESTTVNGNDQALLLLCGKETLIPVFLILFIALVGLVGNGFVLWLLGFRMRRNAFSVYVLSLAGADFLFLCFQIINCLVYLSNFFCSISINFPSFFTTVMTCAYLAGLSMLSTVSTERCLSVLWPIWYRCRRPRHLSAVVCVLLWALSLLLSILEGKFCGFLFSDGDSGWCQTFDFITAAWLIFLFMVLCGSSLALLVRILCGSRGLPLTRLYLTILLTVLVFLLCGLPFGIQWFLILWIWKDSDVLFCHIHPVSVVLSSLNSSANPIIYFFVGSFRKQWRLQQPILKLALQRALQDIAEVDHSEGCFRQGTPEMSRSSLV
Protocol notes: MRGPRX2 activity: IP-One Gq HTRF assay in CHO cells, antagonism versus 0.3 uM Cortistatin-14
Measurement context: versus 0.3 uM Cortistatin-14 agonist, CHO cells expressing human MRGPRX2, read-out: MRGPRX2 Antagonist Activity
Procedure: CHO cells stably transfected to express human MRGPRX2 were maintained in an incubator at 37° C. with 5% CO2 and grown in F12 (HAM) media with 10% fetal bovine serum (FBS), 1% Glutamax, 1% penicillin/streptomycin, 800 μg/mL Geneticin (G418), and 300 μg/mL Hygromycin B. Cells were plated in a 384-well assay plate at 20,000 cells per well in 12 μL of Opti-MEM and kept in an incubator overnight. […] The plate was read on a Molecular Devices SpectraMax iD5 plate reader. […]
pIC50: −log10 of the molar value.
Measured quantity: pIC50

[[record]]
compound = "N#Cc1ccc2c(c1Oc1ccccc1F)NC(NCc1ncccc1Cl)=NS2(=O)=O [Compound 3-1]"
reported_measurement = "> 7.00"

[[record]]
compound = "O=S1(=O)N=C(NCc2cccc(F)c2)Nc2c1cc(F)c(F)c2Cc1ccccc1Cl [Compound 4-12]"
reported_measurement = "6.30 to 7.00"

[[record]]
compound = "COc1cccnc1CNC1=NS(=O)(=O)c2ccc(F)c(Oc3ccccc3Cl)c2N1 [Compound 1-30]"
reported_measurement = "6.30 to 7.00"

[[record]]
compound = "O=S1(=O)N=C(NCc2cnccc2Cl)Nc2c(Cc3ccccc3Cl)cccc21 [Compound 12-32]"
reported_measurement = "> 7.00"

[[record]]
compound = "CC(c1ccccc1F)c1c(F)ccc2c1NC(NCc1ncccc1F)=NS2(=O)=O (single isomer, unassigned) [Compound 10-1A]"
reported_measurement = "> 7.00"

[[record]]
compound = "CC(c1ccccc1F)c1c(F)ccc2c1NC(NCc1ccc(F)c(Cl)c1)=NS2(=O)=O (centres unmarked) [Compound 7-7]"
reported_measurement = "> 7.00"

[[record]]
compound = "O=S1(=O)N=C(NCc2ncccc2F)Nc2c(Oc3ccccc3Cl)c(Cl)cc(F)c21 [Compound 1-42]"
reported_measurement = "6.30 to 7.00"

[[record]]
compound = "Cc1cccc(C)c1Cc1cccc2c1NC(NCc1ccccc1F)=NS2(=O)=O [Compound 6-17]"
reported_measurement = "> 7.00"

